# Test system: human APOE RNA
# ASSAY_TEXT: Activity in APOE C57BL/6NTac-Apoeem7250 knock-in mice, single ICV bolus, 4 weeks (Example 10)
# Assay type: in vivo
# RUN_PARAMETERS: spinal cord; single ICV bolus 300 μg; 4 weeks post treatment; normalized to mouse Ppia
Strand notation (5' to 3'): a small letter for the sugar, then the base; units joined by * are phosphorothioate-linked, units joined directly phosphodiester-linked; [ ] holds rarer units or linkages, { } end groups; capitals alone tell only the bases. [ms] = mesyl phosphoramidate linkage; e = 2'-O-(2-methoxyethyl) (MOE); k = constrained ethyl (cEt); [5mC] = 5-methylcytosine; d = 2'-deoxy (DNA)
We use 60 % control as the dividing line for APOE RNA (% control) Spinal Cord: on or above the line is True, below is False.

// below: answered substances
INSERT INTO measurements (substance, target_desc, group_label) VALUES
  ('1778110: 6-10-4 MOE gapmer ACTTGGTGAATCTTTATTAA, linkages soooosszzsssssszoss (eA*e[5mC]eTeTeGeG*dT*dG[ms]dA[ms]dA*dT*d[5mC]*dT*dT*dT*dA[ms]eTeT*eA*eA) [compound 1778110]', 'human APOE RNA', 'False'),
  ('1778115: modified oligonucleotide complementary to human APOE RNA (eA*e[5mC]eTeTkGkG*dT*dG[ms]dA[ms]dA*dT*d[5mC]*dT*dT*dT*dA[ms]eTeT*eA*eA; antisense) [compound 1778115]', 'human APOE RNA', 'True'),
  ('Aes^mCeoTeoTesGesGksTdsGdzAdzAdzTds^mCdsTdsTdsTdsAdzTksTksAesAe (eA*e[5mC]eTeT*eG*kG*dT*dG[ms]dA[ms]dA[ms]dT*d[5mC]*dT*dT*dT*dA[ms]kT*kT*eA*eA) [Compound No. 1757576]', 'human APOE RNA', 'False'),
  ('1746803 (k[5mC]*dT[ms]dT[ms]kG*dG[ms]kT*dG[ms]dA[ms]dA[ms]dT*d[5mC]*dT*dT*dT*dA[ms]dT*kT*dA[ms]kA*kA; antisense) [Compound 1746803]', 'human APOE RNA', 'False');

Test whether the substance 1778127: modified oligonucleotide complementary to human APOE RNA (eA*e[5mC]eTeTkGkG*dT*dG[ms]dA[ms]dA*dT*d[5mC]*dT*dT*dT*dA[ms]kTeT[ms]eA[ms]eA; antisense) [compound 1778127] records APOE RNA (% control) Spinal Cord of 60 % control or higher.
False

Test whether the substance 1753989 (k[5mC]*dT[ms]kT*dG[ms]kG*dT*dG[ms]dA[ms]dA[ms]dT*d[5mC]*dT*dT*dT*dA[ms]kT*dT[ms]kA*dA[ms]kA; antisense) [Compound 1753989] records APOE RNA (% control) Spinal Cord of 60 % control or higher.
False

Test whether the substance 1778125: modified oligonucleotide complementary to human APOE RNA (eA*e[5mC]eTeTeGeG*dT*dG[ms]dA[ms]dA*dT*d[5mC]*dT*dT*dT*dA[ms]kTkT*eA*eA; antisense) [compound 1778125] records APOE RNA (% control) Spinal Cord of 60 % control or higher.
False

###

# Tested on: human APOE RNA
# ASSAY_TEXT: Dose-dependent inhibition of human APOE RNA in HepG2 cells, electroporation, 24 hours (Example 6)
# Type: cell-based
# RUN_PARAMETERS: 1,280 nM
Strand notation (5' to 3'): a small letter for the sugar, then the base; units joined by * are phosphorothioate-linked, units joined directly phosphodiester-linked; [ ] holds rarer units or linkages, { } end groups; capitals alone tell only the bases. [ms] = mesyl phosphoramidate linkage; e = 2'-O-(2-methoxyethyl) (MOE); k = constrained ethyl (cEt); [5mC] = 5-methylcytosine; d = 2'-deoxy (DNA)
We use 40 % UTC as the dividing line for APOE RNA (% UTC): on or above the line is 1.0, below is 0.0.

// below: answered substances
INSERT INTO measurements (substance, group_label) VALUES
  ('1736534 (e[5mC]*eT*eT*eG*eGeT*dG[ms]dA[ms]dA[ms]dT*d[5mC]*dT*dT*dT*dA[ms]dT*kT*kA*eA*eA; antisense) [Compound 1736534]', 1.0),
  ('1736521: 6-10-4 MOE gapmer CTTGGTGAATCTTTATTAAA, linkages sosssszzzsssssssoss (e[5mC]*eTeT*eG*eG*eT*dG[ms]dA[ms]dA[ms]dT*d[5mC]*dT*dT*dT*dA*dT*eTeA*eA*eA) [compound 1736521]', 0.0),
  ('1736529 (e[5mC]*eT*eT*eG*eG*eTdG[ms]dA[ms]dA[ms]dT*d[5mC]*dT*dT*dT*dA[ms]dT*kT*kA*eA*eA; antisense) [Compound 1736529]', 1.0),
  ('1736520: 6-10-4 MOE gapmer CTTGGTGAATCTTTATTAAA, linkages sossoszzzssssssssss (e[5mC]*eTeT*eG*eGeT*dG[ms]dA[ms]dA[ms]dT*d[5mC]*dT*dT*dT*dA*dT*eT*eA*eA*eA) [compound 1736520]', 0.0),
  ('1736531 (e[5mC]*eT*eT*eG*eG*kTdG[ms]dA[ms]dA[ms]dT*d[5mC]*dT*dT*dT*dA[ms]dT*eT*eA*eA*eA; antisense) [Compound 1736531]', 1.0),
  ('1736523: 6-10-4 MOE gapmer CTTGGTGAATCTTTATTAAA, linkages ssoooszzssssssssoss (e[5mC]*eT*eTeGeGeT*dG[ms]dA[ms]dA*dT*d[5mC]*dT*dT*dT*dA*dT*eTeA*eA*eA) [compound 1736523]', 0.0);

Test whether the substance 1736525: 6-10-4 MOE gapmer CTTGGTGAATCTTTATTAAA, linkages sooosszzsssssssssss (e[5mC]*eTeTeGeG*eT*dG[ms]dA[ms]dA*dT*d[5mC]*dT*dT*dT*dA*dT*eT*eA*eA*eA) [compound 1736525] records APOE RNA (% UTC) of 40 % UTC or higher.
0.0

Test whether the substance 1736536 (e[5mC]*eT*eT*eG*kGkT*dG[ms]dA[ms]dA[ms]dT*d[5mC]*dT*dT*dT*dA[ms]dT*eT*eA*eA*eA; antisense) [Compound 1736536] records APOE RNA (% UTC) of 40 % UTC or higher.
1.0

Test whether the substance 1736514 (e[5mC]*eTeT*eG*kG*kT*dG[ms]dA[ms]dA[ms]dT*d[5mC]*dT*dT*dT*dA[ms]dT*eT*eA*eA*eA; antisense) [Compound 1736514] records APOE RNA (% UTC) of 40 % UTC or higher.
0.0

Test whether the substance 1652902: 6-10-4 MOE gapmer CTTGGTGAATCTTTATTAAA, linkages sooooossssssssssoss (antisense e[5mC]*eTeTeGeGeTdG*dA*dA*dT*d[5mC]*dT*dT*dT*dA*dT*eTeA*eA*eA) [compound 1652902] records APOE RNA (% UTC) of 40 % UTC or higher.
0.0

Test whether the substance 1736535 (e[5mC]*eT*eT*eG*eGkT*dG[ms]dA[ms]dA[ms]dT*d[5mC]*dT*dT*dT*dA[ms]dT*eT*eA*eA*eA; antisense) [Compound 1736535] records APOE RNA (% UTC) of 40 % UTC or higher.
1.0

Test whether the substance 1736519: 6-10-4 MOE gapmer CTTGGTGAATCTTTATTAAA, linkages sososszzzssssssssss (e[5mC]*eTeT*eGeG*eT*dG[ms]dA[ms]dA[ms]dT*d[5mC]*dT*dT*dT*dA*dT*eT*eA*eA*eA) [compound 1736519] records APOE RNA (% UTC) of 40 % UTC or higher.
0.0

Test whether the substance 1736527: 6-10-4 MOE gapmer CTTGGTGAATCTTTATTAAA, linkages sssooozzsssssssssss (e[5mC]*eT*eT*eGeGeTdG[ms]dA[ms]dA*dT*d[5mC]*dT*dT*dT*dA*dT*eT*eA*eA*eA) [compound 1736527] records APOE RNA (% UTC) of 40 % UTC or higher.
0.0

###

# Test system: human APOE RNA
# ASSAY_TEXT: Activity in APOE C57BL/6NTac-Apoeem7250 knock-in mice, single ICV bolus, 20 weeks (Example 13)
# Format: in vivo
# RUN_PARAMETERS: spinal cord; single ICV bolus 300 μg; 20 weeks post treatment; normalized to mouse Ppia
Strand notation (5' to 3'): a small letter for the sugar, then the base; units joined by * are phosphorothioate-linked, units joined directly phosphodiester-linked; [ ] holds rarer units or linkages, { } end groups; capitals alone tell only the bases. [ms] = mesyl phosphoramidate linkage; e = 2'-O-(2-methoxyethyl) (MOE); k = constrained ethyl (cEt); [5mC] = 5-methylcytosine; d = 2'-deoxy (DNA)
RECORDED_ENDPOINT: APOE RNA (% control) Spinal Cord
Answer format reminder: number followed by unit.

Sample records with APOE RNA (% control) Spinal Cord:
INSERT INTO assay_data (substance, recorded_endpoint, measured_result) VALUES
  ('1757574 (eA*e[5mC]eTeT*eG*eG*dT*dG[ms]dA[ms]dA[ms]dT*d[5mC]*dT*dT*dT*dA[ms]kT*kT*eA*eA; antisense) [Compound 1757574]', 'APOE RNA (% control) Spinal Cord', '68 % control'),
  ('1757575 (eA*e[5mC]eTeT*kG*kG*dT*dG[ms]dA[ms]dA[ms]dT*d[5mC]*dT*dT*dT*dA[ms]kT*eT*eA*eA; antisense) [Compound 1757575]', 'APOE RNA (% control) Spinal Cord', '88 % control'),
  ('1757583 (eT*eTeGeGeT*dG*dA*dA*dT*d[5mC]*dT*dT*dT*dA*dT*kTeAeA*eA*e[5mC]; antisense) [Compound 1757583]', 'APOE RNA (% control) Spinal Cord', '100 % control'),
  ('1778115: modified oligonucleotide complementary to human APOE RNA (eA*e[5mC]eTeTkGkG*dT*dG[ms]dA[ms]dA*dT*d[5mC]*dT*dT*dT*dA[ms]eTeT*eA*eA; antisense) [compound 1778115]', 'APOE RNA (% control) Spinal Cord', '28 % control'),
  ('1736527: 6-10-4 MOE gapmer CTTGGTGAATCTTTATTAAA, linkages sssooozzsssssssssss (e[5mC]*eT*eT*eGeGeTdG[ms]dA[ms]dA*dT*d[5mC]*dT*dT*dT*dA*dT*eT*eA*eA*eA) [compound 1736527]', 'APOE RNA (% control) Spinal Cord', '58 % control');

# per-item lookup of APOE RNA (% control) Spinal Cord; items listed below
1. 1778120 (eA*e[5mC]eTeTeGeG*dT*dG[ms]dA[ms]dA*dT*d[5mC]*dT*dT*dT*dA[ms]kTeT*eA*eA; antisense) [Compound 1778120]
2. 1785604: modified oligonucleotide complementary to human APOE RNA (k[5mC]*dT[ms]dT[ms]kG*dG[ms]kT*dG[ms]dA[ms]dA*dT*d[5mC]*dT*dT*dT*dA*dT*kT*kA*dA[ms]kA; antisense) [compound 1785604]

44 % control
47 % control

# per-item lookup of APOE RNA (% control) Spinal Cord; items listed below
1. 1757559: mixed MOE/cEt gapmer TTGGTGAATCTTTATTAA, sugar eeeekddddddddkeeee, linkages soossssssssssooss (eT*eTeGeG*kT*dG*dA*dA*dT*d[5mC]*dT*dT*dT*kAeTeT*eA*eA) [compound 1757559]
2. 1785617: modified oligonucleotide complementary to human APOE RNA (k[5mC]*dT[ms]dT[ms]kG*dG[ms]kT*dG[ms]dA[ms]dA[ms]dT[ms]d[5mC]*dT*dT*dT*dA*dT*kT*kA*dA[ms]kA; antisense) [compound 1785617]

1. 69 % control
2. 38 % control
